These entries and their values trace back to patent US20260297172.

Give pKd for every item shown.
- target-or-system: T1, S100A8/A9 (human, UniProt P05109)
- T1 chain 1: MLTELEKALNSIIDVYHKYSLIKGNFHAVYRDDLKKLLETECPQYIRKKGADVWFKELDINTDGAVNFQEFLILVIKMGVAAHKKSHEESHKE
- T1 chain 2: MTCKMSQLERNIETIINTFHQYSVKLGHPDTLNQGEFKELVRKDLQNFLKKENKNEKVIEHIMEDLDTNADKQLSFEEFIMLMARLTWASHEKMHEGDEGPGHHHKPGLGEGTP
- protocol-description: BLI
Answers are plain numbers, as −log10 of the molar value.

// input: 3 binders below; output: pKd for each
1. ROIS-4 (antibody, V domains shown) VH: QVSLEESGGDLVQPGGSLRLACVASGFSFSSGCWVCWVRQAPGKGLEWVSCIYTGDGDTYYANSVRGRFTVSRKNSTTSVYLQMNSLRADDTALYFCASPQPGDITYLGFWGPGTLVTVSS VL: DIHMTQSPSSLSASVGDTVTITCQASQNINSYLSWYQQKPGKAPKLLISLASDLASGVPSRFSGSESGTDYTLTISSLQPEDFATYYCQGYFADSGSSGRSWAFGQGTKVEIKR
2. ROIS-5 (antibody, V domains shown) VH: QVSLEESGGDLVQPGGSLRLACVASGFSFSSGCWVCWVRQAPGKGLEWVSCIYTGDGDTYYANSVRGRFTVSRRNSTTSVYLQMNSLRADDTALYFCASPQPGDITYLGFWGPGTLVTVSS VL: DIHMTQSPSSLSASVGDTVTITCQASQNINSYLSWYQQKPGKAPKLLISLASDLASGVPSRFSGSESGTDYTLTISSLQPEDFATYYCQGYFADSGSSGRSWAFGQGTKVEIKR
3. ROIS-3 (antibody, V domains shown) VH: QVSLEESGGDLVQPGGSLRLACVASGFSFSSGCWVCWVRQAPGKGLEWVSCIYTGDGDTYYANSVRGRFTVSRQNSTTSVYLQMNSLRADDTALYFCASPQPGDITYLGFWGPGTLVTVSS VL: DIHMTQSPSSLSASVGDTVTITCQASQNINSYLSWYQQKPGKAPKLLISLASDLASGVPSRFSGSESGTDYTLTISSLQPEDFATYYCQGYFADSGSSGRSWAFGQGTKVEIKR

1. 8.75
2. 9.21
3. 10.32
